Value source: PubChem BioAssay (NCI)

- assay-name: NCI Yeast Anticancer Drug Screen. Data for the mec2-1 strain (AID 157)
- measurement-conditions: S. cerevisiae mec2-1 strain, at 50.0 µM
- Protocol: Growth inhibition of yeast strains with defined genetic alterations is measured as a screen for potential anti-cancer activity. Selected strains with alterations in DNA damage repair or cell cycle control were exposed to compounds and growth inhibition was measured relative to vehicle treated controls. The strain used in this assay is mec2-1
About 79,000 compounds went through this panel and 15% of them were active in at least one assay; those are over-represented in the sample as a whole. The source made the active and inactive calls. Rule as the data show it: active = growth inhibition above about 70%; inactive = the rest.
Outcomes: active, inactive

> print(dat)
                                    molecule  assigned.category
 1     Cc1cnc(Sc2ncccc2[N+](=O)[O-])[nH]c1=O           inactive
 2  COS(=O)c1cc(Cl)cc(Cl)c1OC(=O)CSSCC(=O)Oc1c(Cl)cc(Cl)cc1S(=O)OC (stereo not given)             active
 3  CCCC(=O)N(C(=O)CCC)C1=C(Cl)C(=O)c2ccccc2C1=O             active
 4  CCN1C2=NC(=O)N(C)C(=O)C2(Cl)C(C(SC)S(=O)(=O)c2ccc(C)cc2)c2ccccc21 (stereo not given)             active
 5  Cc1c2ccncc2c(C)c2c1[nH]c1ccc(OCCN(C)C)cc12             active
 6      O=Cc1[nH]c(=S)[nH]c(=O)c1CCCc1ccccc1             active
 7  O=C(O)c1ccccc1NC(c1ccccc1)c1ccc2cccnc2c1O (stereo not given)             active
 8    CCCCCCCCCCCCOC(=O)C[n+]1cccc(C(N)=O)c1             active
 9  Brc1cc2c(c(Br)c1Br)C(Br)(Br)C(c1ccccc1)=N2           inactive
10       CCN(CC)CCC(=O)/C=C/c1ccc(Cl)c(Cl)c1             active
11               COC(=O)c1c[nH]c2ccc(Br)cc12           inactive
12               COc1ccc(NNC(=O)c2ccccc2)cc1             active
13  CSC(=S)OC1CC(n2cnc3c(NC(=O)c4ccccc4)ncnc32)OC1CO[Si](C)(C)C(C)(C)C (stereo not given)           inactive
14  CN(C)C(=O)/N=c1\ss/c(=N\C(=S)N(C)C)n1-c1ccccc1           inactive
15  O=C(Nc1cccc2ccccc12)OCC1CCc2ccccc2C1 (stereo not given)           inactive
16                  CC(C)c1ccc(C(C)C)c(O)c1O             active
17  CC[N-]c1nncs1.CC[N-]c1nncs1.CC[N-]c1nncs1.CC[N-]c1nncs1.[Cl][Rh][Cl]             active
18                  CC(CCN)(CCN)[N+](=O)[O-]           inactive
19               Oc1ccc(CCCCCc2ccc(O)cc2)cc1             active
20    CN(C)N=Nc1c(-c2ccccc2)n[nH]c1-c1ccccc1             active
21  O=C1c2cccc(S(=O)(=O)O)c2C(=O)c2cccc([N+](=O)[O-])c21           inactive
22           OC1CCN(c2c3ccccc3nc3ccccc23)CC1           inactive
23  CC(=O)N1CC(C)CC2OC3(CCC4C5CCC6CC(O)CCC6(C)C5C(=O)C4C3C)C(C)C21 (stereo not given)             active
24  CCOC(=O)C1(C#N)C(=O)CSC1=Nc1ccccc1Cl (stereo not given)           inactive
25  CC(=N/NC(=S)NCC(C)C)/C(C)=N\Nc1ccc(Cl)cc1             active
26  COC([C@@H](OC(=O)c1ccccc1)[C@H](OC(=O)c1ccccc1)C(O)COC(=O)c1ccccc1)n1cc(C)c(=O)[nH]c1=O (stereo not given in full)           inactive
27  O=C(CC(=O)Nc1cccc(Cl)c1)NNCC(=O)Nc1nnc(-c2ccccc2)s1           inactive
28                Oc1c(Br)cc(Br)cc1-c1ccccc1             active
29                CN(NC(=O)c1cccs1)C1=NCCCN1           inactive
30  CC(C)NC(=O)O/N=C1\CCC2[C@@H]3CC=C4C[C@@H](OC(=O)NC(C)C)CC[C@]4(C)C3CC[C@]12C (stereo not given in full)             active
31  CC(c1ccc(OCc2ccccc2)cc1)c1cc2c(cc1OCCO)OCO2 (stereo not given)             active
32         CCc1cc2c(c3c1C(=O)CC3)C(C)(C)CCC2           inactive
33  COc1cc(C/C(=C/c2ccc(OC)c3occc23)[N+](=O)[O-])cc(OC)c1OC             active
34  NNC(=S)N/N=C(\CC1OC(=O)c2ccccc21)c1ccccc1O (stereo not given)           inactive
35  O=C1OC(=O)C2C1C1(c3ccccc3)OC2(c2ccccc2)c2c(Br)c(Br)c(Br)c(Br)c21 (stereo not given)             active
36  COc1ccc(C2SCC(=O)N2c2ccc(-c3ccc(-n4c(-c5ccccc5)nc5ccccc5c4=O)cc3)cc2)cc1 (stereo not given)           inactive
37              CCCC(c1ccc(O)cc1)c1ccc(O)cc1             active
38  CC(=O)OC1CC2Cc3ccccc3C3(O)COC213 (stereo not given)           inactive
39  CC1C[C@]2(C)C(=S)Nc3ccccc3[C@@H]2Nc2ccccc21 (stereo not given in full)           inactive
40  CCOc1cc(C(c2ccc(N(C)C)cc2)c2ccc(N(C)C)cc2)ccc1O           inactive
41         Cc1c[n+](CC(=O)c2ccc(I)cc2)c(C)s1           inactive
42  Cc1noc(NS(=O)(=O)c2ccc(NCc3c4ccccc4nc4cc(Cl)ccc34)cc2)c1C             active
43             COC(=O)c1cc(/C=C/c2ccccc2)on1           inactive
44                        Nc1cccc2c(O)cccc12           inactive
45                CCCCCCCCS(=O)(=O)Nc1ccccc1             active
